Here, each record is paired with measured Rel EC50 data.
Target: T1, Recombinant DR3-Fc (R&D Systems, cat. #943-D3) (UniProt Q93038 25-199, limits assumed)
T1 construct: dimeric MW~92 kDa; also called DR3 receptor; Fc-DR3; not shown: Fc part of the bought fusion
T1 sequence (looked up): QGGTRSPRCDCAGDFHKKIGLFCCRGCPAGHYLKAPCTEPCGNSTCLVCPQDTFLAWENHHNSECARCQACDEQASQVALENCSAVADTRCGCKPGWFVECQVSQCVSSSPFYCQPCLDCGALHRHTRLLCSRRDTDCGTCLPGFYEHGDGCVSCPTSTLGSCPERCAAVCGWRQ
Assay: ELISA, DR3-Fc immobilized

// known answers, use as guide
{"binder": "TL1W115 (His-TEV-TL1A T192F) (ligand, also called TL1W115 (T192F)) HHHHHHENLYFQGLKGQEFAPSHQQVYAPLRADGDKPRAHLTVVRQTPTQHFKNQFPALHWEHELGLAFTKNRMNYTNKFLLIPESGDYFIYSQVTFRGMTSECSEIRQAGRPNKPDSITVVITKVTDSYPEPFQLLMGTKSVCEVGSNWFQPIYLGAMFSLQEGDKLMVNVSDISLVDYTKEDKTFFGAFLL", "Rel EC50": "0.5 ratio (head: nM)"}
{"binder": "TL1W87 (His-TEV-TL1A G124D) (ligand, also called TL1W87 (G124D)) HHHHHHENLYFQGLKGQEFAPSHQQVYAPLRADGDKPRAHLTVVRQTPTQHFKNQFPALHWEHELDLAFTKNRMNYTNKFLLIPESGDYFIYSQVTFRGMTSECSEIRQAGRPNKPDSITVVITKVTDSYPEPTQLLMGTKSVCEVGSNWFQPIYLGAMFSLQEGDKLMVNVSDISLVDYTKEDKTFFGAFLL", "Rel EC50": "0.6 ratio (head: nM)"}

Alright, here's another binder for you.
For TL1W78 (His-TEV-TL1A R103H) (ligand, also called TL1W78 (R103H)) HHHHHHENLYFQGLKGQEFAPSHQQVYAPLRADGDKPRAHLTVVHQTPTQHFKNQFPALHWEHELGLAFTKNRMNYTNKFLLIPESGDYFIYSQVTFRGMTSECSEIRQAGRPNKPDSITVVITKVTDSYPEPTQLLMGTKSVCEVGSNWFQPIYLGAMFSLQEGDKLMVNVSDISLVDYTKEDKTFFGAFLL the binder record lists Rel EC50 as 2.9 ratio (head: nM)
